Read-out: catalase (CAT), CAT (gene 847)
Protocol Summary: LTEA_HepaRG_CAT: Life Technologies and Expression Analysis (LTEA) Assay for catalase (CAT) using HepaRG (AID 2283452)
Experimental Context: mRNA level, 48 h; actives raise or lower the signal
Calls of active or inactive are those of the source. How the source made its calls: active means hit-call score of the fitted dose curve at least 0.9, where 1 is the maximum; inactive means score below 0.9.
Classes used: active, inactive

> print(dat)
                                    compound  assigned.class
 1      CCOP(=S)(OCC)SCn1c(=O)oc2cc(Cl)ccc21        inactive
 2              CON(C)C(=O)Nc1ccc(Cl)c(Cl)c1        inactive
 3                   CCNc1nc(Cl)nc(NC(C)C)n1        inactive
 4  CCOC(=O)C(Cl)Cc1cc(-n2nc(C)n(C(F)F)c2=O)c(F)cc1Cl (configuration not stated)        inactive
 5  CCc1nn(C)c(C(=O)NCc2ccc(C(C)(C)C)cc2)c1Cl          active
 6              CCCCOC(=O)c1ccccc1C(=O)OCCCC        inactive
 7                                  CNC(=S)S        inactive
 8                    N#Cc1cc(Br)c(O)c(Br)c1          active
 9                      CNC(=O)ON=CC(C)(C)SC        inactive
10  CS/C(C)=N/OC(=O)N(C)SN(C)C(=O)O/N=C(\C)SC        inactive
11  CCCC1COC(Cn2cncn2)(c2ccc(Cl)cc2Cl)O1 (configuration not stated)          active
12                O=C(O)COc1nc(Cl)c(Cl)cc1Cl        inactive
13  CCOC(=O)CC(SP(=S)(OC)OC)C(=O)OCC (configuration not stated)        inactive
14                      CCNc1nc(Cl)nc(NCC)n1        inactive
15                 COC(=O)C=C(C)OP(=O)(OC)OC        inactive
16  COC(=O)C(C)Oc1ccc(Oc2ccc(Cl)cc2Cl)cc1 (configuration not stated)        inactive
17  N#Cc1nn(-c2c(Cl)cc(C(F)(F)F)cc2Cl)c(N)c1S(=O)C(F)(F)F (configuration not stated)          active
18                CC1=C(C(=O)Nc2ccccc2)SCCO1          active
19                        Oc1ccccc1-c1ccccc1        inactive
20  C=CCC1=C(C)[C@@H](OC(=O)[C@@H]2[C@@H](C=C(C)C)C2(C)C)CC1=O        inactive
21  CCCCC(CC)COC(=O)c1ccccc1C(=O)OCC(CC)CCCC (configuration not stated)        inactive
22   COP(N)(=O)SC (configuration not stated)        inactive
23               O=C(Nc1ccccc1)Nc1ccnc(Cl)c1          active
24  COC(=O)N(OC)c1ccccc1COc1ccn(-c2ccc(Cl)cc2)n1          active
25  CC(C)C1(C)N=C(c2nc3ccccc3cc2C(=O)O)NC1=O (configuration not stated)        inactive
26                      O=C(O)c1nc(Cl)ccc1Cl        inactive
27        Fc1ccc(Oc2ccnc3cc(Cl)cc(Cl)c23)cc1        inactive
